test system: HeLa; assay: nucleolar rRNA biogenesis percent inhibition (5-EU; siNT 0%, siPOLR1A 100%); higher = stronger inhibition of nucleolar rRNA biogenesis; settings: 20 nM; 72 h
Measured Quantity: nucleolar rRNA biogenesis percent inhibition (%)
Value expressed in %; do not type the unit.

Below, 3 sequences whose answers are already recorded.
INSERT INTO assay_data (record_sequence, measured) VALUES
  ('AAGGAGCUCACAGUCUAUUGAG [hsa-miR-28-5p]', 60.9),
  ('UGAAGGUCUACUGUGUGCCAGG [hsa-miR-493-3p]', -1.09),
  ('CAUCUGGCAUCCGUCACACAGA [hsa-miR-3126-3p]', 4.46);

*Q* I would be grateful if you could share the reported nucleolar rRNA biogenesis percent inhibition for GUUCUCCCAACGUAAGCCCAGC [hsa-miR-629-3p] .
*A* 55.5

*Q* Quick check: nucleolar rRNA biogenesis percent inhibition of CAGGUCGUCUUGCAGGGCUUCU [hsa-miR-431-3p] ?
*A* 115
